Data credit: patent US20230365558A1

assay.text: in vivo
condition: male, CD-1, mouse, in vivo, po, 5 mg/kg
outcome.measure: AUC (µM·h)

compound	outcome.measure	reading
O=C(NC[C@H](O)CN1CCc2ccccc2C1)c1ccc2c(c1)NC(=O)C1(CC(O)C1)O2 (stereo partly shown)	AUC	0.164
O=C(NC[C@H](O)CN1CCc2ccccc2C1)c1ccc2c(c1)NC(=O)C1(CN(CC(F)(F)F)C1)O2	AUC	0.572
CC(C)N1CC2(C1)Oc1ccc(C(=O)NC[C@H](O)CN3CCc4ccccc4C3)cc1NC2=O	AUC	0.168
O=C(NC[C@H](O)CN1CCc2ccccc2C1)c1cnc2c(c1)NC(=O)C1(CC1)O2	AUC	1.03

* * *

assay.text: Pharmacokinetic evaluation in CD-1 mice
condition: CD-1 mice, oral administration (5 mg/kg)
Item-by-item account of Concentration integral AUC
outcome.measure: Concentration integral AUC (µM·h)

structure.string	outcome.measure	reading
O=C(NC[C@H](O)CN1CCc2ccccc2C1)c1cnc2c(c1)NC(=O)C1(CCC1)O2	Concentration integral AUC	0.773
O=C(NC[C@H](O)CN1CCc2ccccc2C1)c1ccc2c(c1)NC(=O)C1(CCOCC1)O2	Concentration integral AUC	0.626
O=C(NC[C@H](O)CN1CCc2ccccc2C1)c1cnc2c(c1)NC(=O)C1(CC1)C2	Concentration integral AUC	1.208
O=C(NC[C@H](O)CN1CCc2ccccc2C1)c1ccc2c(c1)NC(=O)C1(CC1)O2	Concentration integral AUC	7.419

* * *

assay.text: Pharmacokinetic evaluation in CD-1 mice
condition: CD-1 mice, injection administration (1 mg/kg)
# Concentration integral AUC per entry

compound	Concentration integral AUC, µM·h
O=C(NC[C@H](O)CN1CCc2ccccc2C1)c1ccc2c(c1)NC(=O)C1(CCCCC1)O2 [Compound 3]	0.474
O=C(NC[C@H](O)CN1CCc2ccccc2C1)c1ccc2c(c1)NC(=O)C1(CC1)O2 [Compound 7]	2.313
O=C(NC[C@H](O)CN1CCc2ccccc2C1)c1cnc2c(c1)NC(=O)C1(CCC1)O2 [Compound 6]	0.944
O=C(NC[C@H](O)CN1CCc2ccccc2C1)c1ccc2c(c1)NC(=O)C1(CCOCC1)O2 [Compound 4]	0.583

* * *

system.tested: PRMT5 enzyme (Homo sapiens (Human))
Sequence (O14744 whole entry): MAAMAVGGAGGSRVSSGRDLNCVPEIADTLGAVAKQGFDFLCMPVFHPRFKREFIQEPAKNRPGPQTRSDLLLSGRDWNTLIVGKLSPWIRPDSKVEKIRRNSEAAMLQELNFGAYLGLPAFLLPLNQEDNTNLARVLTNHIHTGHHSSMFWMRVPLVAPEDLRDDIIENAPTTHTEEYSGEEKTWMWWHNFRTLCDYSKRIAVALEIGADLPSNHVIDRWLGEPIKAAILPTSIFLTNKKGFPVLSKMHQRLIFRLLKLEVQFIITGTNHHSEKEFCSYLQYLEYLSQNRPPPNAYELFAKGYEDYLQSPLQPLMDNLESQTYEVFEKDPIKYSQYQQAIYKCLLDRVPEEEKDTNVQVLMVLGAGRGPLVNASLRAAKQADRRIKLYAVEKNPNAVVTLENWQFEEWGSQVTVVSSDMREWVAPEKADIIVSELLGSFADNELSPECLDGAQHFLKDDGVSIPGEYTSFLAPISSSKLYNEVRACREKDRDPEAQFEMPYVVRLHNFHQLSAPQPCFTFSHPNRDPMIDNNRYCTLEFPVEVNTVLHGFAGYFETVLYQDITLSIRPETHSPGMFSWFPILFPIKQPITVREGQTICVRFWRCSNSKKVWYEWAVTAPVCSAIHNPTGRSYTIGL
Sequence (Q9BQA1 whole entry partner): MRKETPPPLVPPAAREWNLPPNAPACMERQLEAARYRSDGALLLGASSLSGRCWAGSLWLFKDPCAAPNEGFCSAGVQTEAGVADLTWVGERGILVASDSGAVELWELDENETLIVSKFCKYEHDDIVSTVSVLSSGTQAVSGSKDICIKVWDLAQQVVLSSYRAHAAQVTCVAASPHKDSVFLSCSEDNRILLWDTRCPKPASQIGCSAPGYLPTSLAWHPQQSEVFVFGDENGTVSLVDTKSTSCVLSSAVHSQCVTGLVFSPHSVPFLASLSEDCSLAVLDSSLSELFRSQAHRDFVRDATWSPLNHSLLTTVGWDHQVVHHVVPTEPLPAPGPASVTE
assay.text: PRMT5 enzyme inhibitory activity assay (LANCE Ultra TR-FRET)
Format: biochemical
Grouping rule (IC50): low bin = under 20 nM, mid bin = from 20 nM up to 30 nM, high bin = 30 nM and over

molecule	system.tested	discrete.label
O=C(NC[C@H](O)CN1CCc2ccccc2C1)c1ccc2c(c1)NC(=O)[C@@]1(CCOC1)O2	PRMT5 enzyme (Homo sapiens (Human))	low bin
O=C(NC[C@H](O)CN1CCc2ccccc2C1)c1ccc2c(c1)NC(=O)C1(CCOCC1)O2	PRMT5 enzyme (Homo sapiens (Human))	mid bin
O=C(NC[C@H](O)CN1CCc2ccccc2C1)c1ccc2c(c1)NC(=O)[C@H]1C[C@@H]21 [Compound 49b]	PRMT5 enzyme (Homo sapiens (Human))	mid bin
CC(C)N1CC2(C1)Oc1ccc(C(=O)NC[C@H](O)CN3CCc4ccccc4C3)cc1NC2=O	PRMT5 enzyme (Homo sapiens (Human))	high bin
O=C(NC[C@H](O)CN1CCc2ccccc2C1)c1cnc2c(c1)NC(=O)C1(CC(F)(F)C1)O2	PRMT5 enzyme (Homo sapiens (Human))	low bin
COCCOC1CC2(C1)Oc1ccc(C(=O)NC[C@H](O)CN3CCc4ccccc4C3)cc1NC2=O (some centres unmarked) [Compound 24]	PRMT5 enzyme (Homo sapiens (Human))	low bin
O=C(NC[C@H](O)CN1CCc2ccccc2C1)c1ccc2c(c1)NC(=O)C1(CCCC1)O2	PRMT5 enzyme (Homo sapiens (Human))	high bin
O=C(NC[C@H](O)CN1CCc2ccccc2C1)c1ccc2c(c1)NC(=O)[C@]1(CCOC1)O2	PRMT5 enzyme (Homo sapiens (Human))	low bin
O=C(NC[C@H](O)CN1CCc2ccccc2C1)c1cnc2c(c1)NC(=O)C1(CC1)C2	PRMT5 enzyme (Homo sapiens (Human))	high bin
COCCOC1CC2(C1)Oc1ccc(C(=O)NC[C@H](O)CN3CCc4ccccc4C3)cc1NC2=O (some centres unmarked) [Compound 23]	PRMT5 enzyme (Homo sapiens (Human))	low bin
O=C(NC[C@H](O)CN1CCc2ccccc2C1)c1cnc2c(c1)NC(=O)C1(CC1)O2	PRMT5 enzyme (Homo sapiens (Human))	low bin
